Where do the numbers come from? From patent US5789380A.

- target_of_assay: T1, human pancreatic α-amylase (human, UniProt P04746)
- T1 sequence: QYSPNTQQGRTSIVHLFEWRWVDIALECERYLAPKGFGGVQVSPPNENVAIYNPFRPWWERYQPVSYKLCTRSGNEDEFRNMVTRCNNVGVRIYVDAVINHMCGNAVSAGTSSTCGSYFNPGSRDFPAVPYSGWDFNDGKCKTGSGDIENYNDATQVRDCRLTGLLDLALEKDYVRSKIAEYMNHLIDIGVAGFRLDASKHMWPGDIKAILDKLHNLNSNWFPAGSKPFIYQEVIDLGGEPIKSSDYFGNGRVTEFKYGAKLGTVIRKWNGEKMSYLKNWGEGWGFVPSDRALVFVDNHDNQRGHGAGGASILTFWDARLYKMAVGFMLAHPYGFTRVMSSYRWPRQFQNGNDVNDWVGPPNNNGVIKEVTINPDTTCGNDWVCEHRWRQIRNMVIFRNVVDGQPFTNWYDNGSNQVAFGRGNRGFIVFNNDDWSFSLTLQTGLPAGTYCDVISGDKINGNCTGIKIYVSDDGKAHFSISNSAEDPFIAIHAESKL
- assay_details: cell-based or functional assay
reported_property: Amylase inhibitory activity (U/mg)

0.26 AIa (other) SGPWMCYPGYAFKVPALPGCRPVLKLQCNGSQVPEAVLRDCCQQLADISEWCRCGALYSMLDSMYKEHGVQEGQAGTGAFPSCRREVVKLTAASITAVCKLPIVIDASGDGAYVCKGVAAYPDA ... 26100
0.19 AI (other) SGPWMCYPGQAFQVPALPACRPLLRLQCNGSQVPEAVLRDCCQQLAHISEWCRCGALYSMLDSMYKEHGAQEGQAGTGAFPRCRREVVKLTAASITAVCRLPIVVDASGDGAYVCKDVAAYPDA ... 20300
